# Target Entity: HA of H3-LA87 (A/Los Angeles/7/09 (H3N2)) virus (influenza A virus)
# Test Description: cell-based or functional assay
Can you tell me Neutralization IC50, H3-LA87 for the items I'm about to list?
One number for each entry, in mg/L.

Before answering, review these 2 worked examples.
Incoming: Requested field: Neutralization IC50, H3-LA87. Item: Antibody 3 (antibody, V domains shown) VH: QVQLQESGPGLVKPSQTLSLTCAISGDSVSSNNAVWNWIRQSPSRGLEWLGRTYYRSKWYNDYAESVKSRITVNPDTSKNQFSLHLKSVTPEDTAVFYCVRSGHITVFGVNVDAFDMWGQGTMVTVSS VL: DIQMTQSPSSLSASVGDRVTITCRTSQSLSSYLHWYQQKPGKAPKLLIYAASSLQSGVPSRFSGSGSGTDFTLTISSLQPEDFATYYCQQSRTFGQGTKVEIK
Outgoing: 4.19

Incoming: Requested field: Neutralization IC50, H3-LA87. Item: Antibody 6 (antibody, V domains shown) VH: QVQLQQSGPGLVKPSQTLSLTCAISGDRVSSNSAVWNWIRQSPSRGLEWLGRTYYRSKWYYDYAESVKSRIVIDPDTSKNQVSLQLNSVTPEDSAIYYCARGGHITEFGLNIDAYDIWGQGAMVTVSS VL: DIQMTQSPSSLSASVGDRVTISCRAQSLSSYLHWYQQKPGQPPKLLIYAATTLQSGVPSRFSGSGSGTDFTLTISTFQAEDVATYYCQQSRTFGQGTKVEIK
Outgoing: 12.6

Give Neutralization IC50, H3-LA87 for each of the items listed below.
1. Antibody 10 (antibody, V domains shown) VH: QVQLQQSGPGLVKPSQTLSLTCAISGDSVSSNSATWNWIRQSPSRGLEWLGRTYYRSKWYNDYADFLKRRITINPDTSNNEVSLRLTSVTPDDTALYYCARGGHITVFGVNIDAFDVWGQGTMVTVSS VL: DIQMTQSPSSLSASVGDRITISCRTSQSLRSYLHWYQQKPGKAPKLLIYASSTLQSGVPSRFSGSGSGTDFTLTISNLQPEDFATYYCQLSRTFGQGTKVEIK
2. Antibody 5 (antibody, V domains shown) VH: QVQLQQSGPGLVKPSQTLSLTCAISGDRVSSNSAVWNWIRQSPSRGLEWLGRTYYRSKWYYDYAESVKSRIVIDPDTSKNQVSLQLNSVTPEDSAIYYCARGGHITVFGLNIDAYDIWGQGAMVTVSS VL: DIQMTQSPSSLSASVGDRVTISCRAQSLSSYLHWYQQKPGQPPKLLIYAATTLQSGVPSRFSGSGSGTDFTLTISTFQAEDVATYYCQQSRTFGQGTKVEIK

Outgoing:
4.59
3.54
